- System: Ebola virus
- Type: cell-based
- recordedConditions: read-out: IC50 reduction of virus replication
endpointName: IC50

query: Provide measured IC50 value, entry: `CC(C)[C@@H](C(=O)N1CCCC1)N(CCCc1ccccc1)C(=O)[C@H]1CC[C@H](C(=O)N(CCCc2ccccc2)[C@H](C(=O)N2CCCC2)C(C)C)CC1`
result: 42 µM

---

- Tested on: Lassa virus
- Format: cell-based
- recordedConditions: read-out: IC50 reduction of virus replication
endpointName: pIC50
// field semantics: pIC50 = negative decimal log of concentration (mol/L)

query: Supply pIC50 value. Item: `CC(C)[C@@H](C(=O)N1CCCC1)N(CCCc1ccccc1)C(=O)[C@H]1CC[C@H](C(=O)N(CCCc2ccccc2)[C@H](C(=O)N2CCCC2)C(C)C)CC1`
result: 4.46

---

- Test system: dengue virus
- Type: cell-based
- recordedConditions: read-out: IC50 reduction of virus replication
endpointName: pIC50
# log scale: pIC50 equals minus log10 of the concentration in mol/L

query: Give me measured pIC50, please, for this compound: `CC(C)[C@@H](C(=O)N1CCCC1)N(CCCc1ccccc1)C(=O)[C@H]1CC[C@H](C(=O)N(CCCc2ccccc2)[C@H](C(=O)N2CCCC2)C(C)C)CC1`
result: 4.51

---

- Test system: MyD88-mediated NF-kB driven SEAP reporter response
- Format: cell-based, human
endpointName: pIC50
Quick note: pIC50 values are minus log10 of concentrations in mol/L.

query: Note pIC50 for the molecule shown: CC(C)[C@H](NC(=O)CCc1ccccc1)C(=O)N1CCCC1 [Compound 1, Hydrocinnamoyl-L-valyl-pyrrolidine, reference compound]
result: 3.74

---

- System: Rift valley fever virus
- Type: cell-based
- recordedConditions: read-out: IC50 reduction of virus replication
endpointName: pIC50
Remember, pIC50 is on a log scale: it is -log10 of the molar concentration.

query: Please report pIC50 for the following compound: CC(C)[C@@H](C(=O)N1CCCC1)N(CCCc1ccccc1)C(=O)[C@H]1CC[C@H](C(=O)N(CCCc2ccccc2)[C@H](C(=O)N2CCCC2)C(C)C)CC1 [Compound 4210]
result: 4.66
